# MEASUREMENT_PARAMETERS: 298.15 K; 101.33 kPa; Liquid; Vibrating tube method
Numbers after ± are expanded uncertainties.
In this section, each of the compounds is paired with its reported mass density.
Reply with the number and its unit after it.

- GIVEN_SMILES: "CCCC[N+]1(C)CCCC1.O=S(=O)([N-]S(=O)(=O)C(F)(F)F)C(F)(F)F"
  mass density: "1394.3 ± 0.6 kg/m3"
- GIVEN_SMILES: "CCCCCC[N+]1(C)CCCC1.O=S(=O)([N-]S(=O)(=O)C(F)(F)F)C(F)(F)F"
  mass density: "1336 ± 1.6 kg/m3"

Input line: I am curious: what mass density value has been reported for CCC[N+](C)(C)CC.O=S(=O)([N-]S(=O)(=O)C(F)(F)F)C(F)(F)F ?
Output line: 1403.5 ± 0.6 kg/m3

Input line: Using the record for CCCCCC[n+]1ccn(C)c1.O=S(=O)([N-]S(=O)(=O)C(F)(F)F)C(F)(F)F , report its mass density.
Output line: 1371.6 ± 0.7 kg/m3
